Test system: LOX IMVI
Test: NCI tumour cell line growth inhibition, 48 h
Activity calls are given as the source filed them. Rule as the data show it: active = GI50 up to about 1.1 µM and inactive = higher.
// GI50 lookup, one value per entry

Example cases with answers are listed next.
CN(C)C(=O)Oc1ccc(-c2cn3cc(NC(=O)c4ccccc4)ccc3n2)cc1; 53 µM (inactive)
Clc1nss/c1=N/c1nonc1-c1ccccc1; 27.3 µM (inactive)
COc1ccc2cc(CNCCCCCCCCNCc3ccc4cc(OC)ccc4c3)ccc2c1; 3.94 µM (inactive)
O=C(/C=C/c1ccccc1)Oc1cccc(Br)c1; 29.7 µM (inactive)

Now consider the entry below.
Specify reported GI50 for the compound shown: O=P(O)(CN1CCN(CP(=O)(O)c2ccccc2)CCN(CP(=O)(O)c2ccccc2)CC1)c1ccccc1
67.3 µM (inactive)

###

Test system: MDA-N
Assay: NCI tumour cell line growth inhibition, 48 h
The source made the active and inactive calls. No stated cut-off is given here; in the data, active = GI50 up to about 1.1 µM and inactive = higher.
// GI50 lookup, one value per entry

Example cases with answers are listed next.
COc1ccc(C2C3COc4ccccc4C3=NN2c2ccccc2)cc1 (configuration not stated); > 100 µM (inactive)
O=P(O)(CN1CCN(CP(=O)(O)c2ccccc2)CCN(CP(=O)(O)c2ccccc2)CC1)c1ccccc1; 67.8 µM (inactive)
CNC(=O)CN(C)C(=O)CCC(=O)N(C)C; > 100 µM (inactive)

Specify reported GI50 for the molecule shown: CC(C)(C)[Si](C)(C)OCCc1ccccc1C1CC2(S(=O)(=O)c3ccccc3)ON1CC2S(=O)(=O)c1ccccc1 (configuration not stated)
> 100 µM (inactive)

Specify reported GI50 for the molecule shown: Cc1ccc(Cc2cc(N3CCN(c4cccc(Cl)c4)CC3)nnc2C)cc1
16.4 µM (inactive)

Specify reported GI50 for the molecule shown: CCOC(=O)c1c(-c2ccc(Cl)cc2)c(C#N)c(=S)n(C2OC(COC(C)=O)C(OC(C)=O)C(OC(C)=O)C2OC(C)=O)c1-c1ccccc1 (configuration not stated)
> 100 µM (inactive)

Specify reported GI50 for the molecule shown: CO/C(N)=C(C#N)/N=C/c1ccco1
> 100 µM (inactive)

Specify reported GI50 for the molecule shown: N#CC1Cc2cc3c(cc21)OCO3 (configuration not stated)
> 100 µM (inactive)

###

System: CAKI-1
Experiment: NCI tumour cell line growth inhibition, 48 h
The source made the active and inactive calls. Cut-off read from the data, not from the text of the source: active = GI50 up to about 1.1 µM and inactive = higher.
measurement_name: GI50

O=c1[nH]nc(-c2ccccc2)n1/N=C/c1cccc([N+](=O)[O-])c1; > 100 µM (inactive)

Specify reported GI50 for the compound shown: COc1cccc2nc3cc(C)c(C)cc3nc12
> 100 µM (inactive)

Specify reported GI50 for the compound shown: CC(NC1=NCCO1)c1cccc([N+](=O)[O-])c1 (stereo not given)
> 100 µM (inactive)

Specify reported GI50 for the compound shown: CC(=O)Nc1ccc2c(c1)nc1c3ccccc3ccn21
96.4 µM (inactive)

Specify reported GI50 for the compound shown: COc1cc(Nc2nc3ccccc3n3cccc23)cc(OC)c1OC
> 100 µM (inactive)

Specify reported GI50 for the compound shown: Clc1ccc2c(c1)[nH]c1c2nc2sccn21
> 100 µM (inactive)

Specify reported GI50 for the compound shown: COc1ccc(C2C(C#N)=C(S)N(C3OC(COC(C)=O)C(OC(C)=O)C(OC(C)=O)C3OC(C)=O)C(c3ccccc3)=C2C(C)=O)cc1 (stereo not given)
> 100 µM (inactive)

Specify reported GI50 for the compound shown: CCOC(=O)c1cccn1S(=O)(=O)c1cc(Cl)ccc1NC(=O)CC
> 100 µM (inactive)

Specify reported GI50 for the compound shown: CC1=C(C(=O)Nc2cc(F)c(F)cc2F)C(c2ccc(N(C)C)cc2)C(C(=O)Nc2cc(F)c(F)cc2F)=C(C)N1
13.8 µM (inactive)

Specify reported GI50 for the compound shown: N#Cc1ccc(-c2nc3c(N)ncnc3o2)cc1
> 100 µM (inactive)

###

Tested on: SK-OV-3
Assay: NCI tumour cell line growth inhibition, 48 h
The source made the active and inactive calls. No stated cut-off is given here; in the data, active = GI50 up to about 1.1 µM and inactive = higher.
measurement_name: GI50

Specify reported GI50 for the compound shown: CCOC(=O)/C(O)=C/c1cc(OC)cc(=O)o1
> 100 µM (inactive)

Specify reported GI50 for the compound shown: COc1ccc([C@H]2[C@@H]3CCc4ccccc4C3=NN2C(N)=S)cc1OC
> 100 µM (inactive)

Specify reported GI50 for the compound shown: CNC(=O)OC1/C(C)=C\C(C)C(O)C(OC)CC(C)CC2=C(OC)C(=O)C=C(C2=O)N(C)C(=O)/C(C)=C/C=C\C1OC (stereo unspecified)
10.2 µM (inactive)

Specify reported GI50 for the compound shown: Cc1cccc2cc3ccc4ccccc4c3cc12
> 100 µM (inactive)

Specify reported GI50 for the compound shown: COC(=O)CC(=O)NCC1=CCC(=O)CC1
> 100 µM (inactive)

Specify reported GI50 for the compound shown: Nc1ccccc1/C=C\c1ccccc1
> 100 µM (inactive)

###

System: SW-620
Test: NCI tumour cell line growth inhibition, 48 h
Active and inactive are the calls of the source. No stated cut-off is given here; in the data, active = GI50 up to about 1.1 µM and inactive = higher.
measurement_name: GI50

Cc1cc(C)c(S(=O)(=O)N(CCCN)OCCON(CCCN)S(=O)(=O)c2c(C)cc(C)cc2C)c(C)c1; > 22.2 µM (inactive)
C=CCN1C(=O)C=C(c2ccccc2)n2ncc3cccc1c32; > 100 µM (inactive)
CC12OC3(C(O)C1O)C(C(=O)O[C@H]3CO[Si](C)(C)C(C)(C)C)C2S(=O)(=O)c1ccccc1 (stereo not given in full); 81.5 µM (inactive)
COc1cc(OC)c(OC)cc1/C=C/c1cnnc2ccccc12; > 10 µM (inactive)
Cc1ccccc1OCC(COC(=O)Nc1ccccc1)OC(=O)Nc1ccccc1 (stereo not given); 52.8 µM (inactive)
C[S+](C)CC(=O)c1ccc2c(c1)Sc1ccccc1O2; 2.33 µM (inactive)
C=C(CO)[C@H]1CC/C(C)=C/CC/C(C)=C/C/C=C(\C)[C@H](O)C1; 20.2 µM (inactive)
CCOC(=O)c1c(-c2ccc(Cl)cc2)c(C#N)c(=S)n(C2OC(COC(C)=O)C(OC(C)=O)C(OC(C)=O)C2OC(C)=O)c1-c1ccccc1 (stereo not given); > 100 µM (inactive)
Cc1cccc(O)c1-c1nnc(CCCCCCCCc2nnc(-c3c(C)cccc3O)n2N)n1N; > 100 µM (inactive)

Now consider the entry below.
Specify reported GI50 for the molecule shown: N#CC1=C(Nc2ccccc2)SC=C(c2ccccc2)N=C1NCc1ccccc1
> 100 µM (inactive)

###

System: XF498
Experiment: NCI tumour cell line growth inhibition, 48 h
Activity calls are given as the source filed them. Rule as the data show it: active = GI50 up to about 1.1 µM and inactive = higher.
Assign a class; possible classes are TRUE (active), FALSE (inactive)

# count of solved cases: 5
Cn1c(=O)c(NC(=O)C(Cl)(Cl)Cl)nc2ccccc21; FALSE
O=C(O)c1cc(=O)c2c([nH]c3ccccc32)s1; FALSE
COc1cc2c(cc1OC)[C@@H](Nc1ccc(F)cc1)C1COC(=O)[C@@H]1C2c1cc(OC)c(O)c(OC)c1 (stereo partly drawn); FALSE
Nc1ncc2c(n1)-c1ccccc1OC2; FALSE
COC(=O)c1ccccc1NC(=O)C(=O)CC(=O)c1ccccc1NC1=CC(=O)C(=O)c2ccccc21; FALSE

Per the records of this test, what outcome belongs to COC1C(O)CC(OC2CC(Oc3cc4cc5c(c(O)c4c(O)c3C)C(=O)[C@@H](OC3CC(OC4CC(OC6CC(C)(O)C(OC(C)=O)C(C)O6)C(O)C(C)O4)C(O)C(C)O3)[C@H]([C@H](OC)C(=O)[C@@H](O)[C@@H](C)O)C5)OC(C)C2OC(C)=O)OC1C (stereo partly drawn) [CHROMOMYCIN] ?
TRUE

Per the records of this test, what outcome belongs to CC(C)C1COC(C(C)(C)C2=N[C@@H](C(C)C)CO2)=N1 (stereo partly drawn) ?
FALSE

Per the records of this test, what outcome belongs to COc1ccc(CCCN2c3ccccc3Sc3ccccc32)cc1 ?
FALSE

###

Test system: LOX IMVI
Test: NCI tumour cell line growth inhibition, 48 h
Active and inactive are the calls of the source. No stated cut-off is given here; in the data, active = GI50 up to about 1.1 µM and inactive = higher.
// GI50 lookup, one value per entry

Specify reported GI50 for the compound shown: Brc1ccc(-c2[nH]c3ccccc3c2/C=N\Nc2ccc(-c3nc4ccccc4[nH]3)cc2)cc1
< 0.01 µM (active)

Specify reported GI50 for the compound shown: COc1ccc(-c2cn3c(nc4ccccc43)c(C)n2)cc1
> 93.5 µM (inactive)

Specify reported GI50 for the compound shown: COC(=O)CC(=O)NCC1=CCC(=O)CC1
> 100 µM (inactive)

Specify reported GI50 for the compound shown: O=C(c1ccccn1)c1nnn2ccccc12
> 100 µM (inactive)

Specify reported GI50 for the compound shown: Cc1cccc(C2SCc3nc4ccccc4n32)c1 (stereo unspecified)
28.6 µM (inactive)

Specify reported GI50 for the compound shown: COc1cc(OC)cc(C(=O)Cc2c(C(=O)c3ccccc3)c3ccccc3n2C(=O)c2ccccc2)c1
31.8 µM (inactive)

Specify reported GI50 for the compound shown: COc1cc2c3c(c1OC)-c1c(ccc4c1OCO4)CC3(C#N)N(C(=O)c1ccccc1)CC2 (stereo unspecified)
43 µM (inactive)

Specify reported GI50 for the compound shown: CC1CC2CCCC(=O)C2=C(O)O1 (stereo unspecified)
> 100 µM (inactive)

Specify reported GI50 for the compound shown: CCc1cc2c(cc1CCCC(=O)O)CC1(Cc3ccc(C(=O)O)cc3C1)C2 (stereo unspecified)
> 100 µM (inactive)

Specify reported GI50 for the compound shown: Cc1nc(Cl)nc(Cl)c1C
> 100 µM (inactive)

Specify reported GI50 for the compound shown: Cc1cccc(O)c1-c1nnc(CCCCCCCCc2nnc(-c3c(C)cccc3O)n2N)n1N
45.2 µM (inactive)
